What normalized RNA/DNA level without ligand (log10) was measured for each of the following?
B1: library; a variant is named by its letters at N, in order (parent)
chain: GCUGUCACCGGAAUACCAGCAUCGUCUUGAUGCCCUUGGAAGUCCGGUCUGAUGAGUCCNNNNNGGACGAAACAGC

Variants of: B1
Assay: normalized RNA/DNA level without ligand (relative to sTRSVctl = 100) (log10 (% of sTRSVctl)); higher = less ribozyme self-cleavage, higher mRNA level
Conditions: HEK293T, reporter: mCherry (pCS4076), ligand present: no
One number for each entry.

                         construct_sequence  recorded_result
0  GCUGUCACCGGAAUACCAGCAUCGUCUUGAUGCCCUUGGAAGUCCGGUCUGAUGAGUCCCGCGUGGACGAAACAGC [CGCGU]             1.84
1  GCUGUCACCGGAAUACCAGCAUCGUCUUGAUGCCCUUGGAAGUCCGGUCUGAUGAGUCCACAGCGGACGAAACAGC [ACAGC]             1.95
2  GCUGUCACCGGAAUACCAGCAUCGUCUUGAUGCCCUUGGAAGUCCGGUCUGAUGAGUCCCAUUCGGACGAAACAGC [CAUUC]             1.92

The following variants each have a reported value; give each one's normalized RNA/DNA level without ligand (log10).
1. GCUGUCACCGGAAUACCAGCAUCGUCUUGAUGCCCUUGGAAGUCCGGUCUGAUGAGUCCAGAGAGGACGAAACAGC [AGAGA]
2. GCUGUCACCGGAAUACCAGCAUCGUCUUGAUGCCCUUGGAAGUCCGGUCUGAUGAGUCCAGCAAGGACGAAACAGC [AGCAA]

Found:
[1.28, 1.46]

The following variants each have a reported value; give each one's normalized RNA/DNA level without ligand (log10).
1. GCUGUCACCGGAAUACCAGCAUCGUCUUGAUGCCCUUGGAAGUCCGGUCUGAUGAGUCCAGUGAGGACGAAACAGC [AGUGA]
2. GCUGUCACCGGAAUACCAGCAUCGUCUUGAUGCCCUUGGAAGUCCGGUCUGAUGAGUCCGUCUGGGACGAAACAGC [GUCUG]
3. GCUGUCACCGGAAUACCAGCAUCGUCUUGAUGCCCUUGGAAGUCCGGUCUGAUGAGUCCACACAGGACGAAACAGC [ACACA]
4. GCUGUCACCGGAAUACCAGCAUCGUCUUGAUGCCCUUGGAAGUCCGGUCUGAUGAGUCCAGCAGGGACGAAACAGC [AGCAG]
5. GCUGUCACCGGAAUACCAGCAUCGUCUUGAUGCCCUUGGAAGUCCGGUCUGAUGAGUCCUGGCUGGACGAAACAGC [UGGCU]
6. GCUGUCACCGGAAUACCAGCAUCGUCUUGAUGCCCUUGGAAGUCCGGUCUGAUGAGUCCCGUUCGGACGAAACAGC [CGUUC]

Found:
1. 1.38
2. 1.87
3. 1.77
4. 1.81
5. 1.95
6. 1.75

The following variants each have a reported value; give each one's normalized RNA/DNA level without ligand (log10).
1. GCUGUCACCGGAAUACCAGCAUCGUCUUGAUGCCCUUGGAAGUCCGGUCUGAUGAGUCCACCCCGGACGAAACAGC [ACCCC]
2. GCUGUCACCGGAAUACCAGCAUCGUCUUGAUGCCCUUGGAAGUCCGGUCUGAUGAGUCCCCGGAGGACGAAACAGC [CCGGA]
3. GCUGUCACCGGAAUACCAGCAUCGUCUUGAUGCCCUUGGAAGUCCGGUCUGAUGAGUCCACCAGGGACGAAACAGC [ACCAG]
4. GCUGUCACCGGAAUACCAGCAUCGUCUUGAUGCCCUUGGAAGUCCGGUCUGAUGAGUCCAGAUAGGACGAAACAGC [AGAUA]
5. GCUGUCACCGGAAUACCAGCAUCGUCUUGAUGCCCUUGGAAGUCCGGUCUGAUGAGUCCCUCCUGGACGAAACAGC [CUCCU]
6. GCUGUCACCGGAAUACCAGCAUCGUCUUGAUGCCCUUGGAAGUCCGGUCUGAUGAGUCCUAUAAGGACGAAACAGC [UAUAA]

Found:
1: 1.99; 2: 1.9; 3: 1.83; 4: 1.61; 5: 1.88; 6: 1.47
